Test system: up to 32 different microorganisms
Assay Comment: in vitro antibacterial activity (MIC), agar dilution on Brain Heart Infusion (BHI) agar with Steers replicator
Type: cell-based
Settings: Streptococcus pyogenes PIU 2548 (code NN); unit assumed
Description: Representative compounds of the present invention were assayed in vitro for antibacterial activity as follows: Twelve petri dishes containing successive aqueous dilutions of the test compound mixed with 10 mL of sterilized Brain Heart Infusion (BHI) agar (Difco 0148-01-5) were prepared. Each plate was inoculated with 1:100 (or 1:10 for slow-growing strains, such as Micrococcus and Streptococcus) dilutions of up to 32 different microorganisms, using a Steers replicator block. […]
Reported Endpoint: MIC (µg/mL)
// note: answer is a bare numeric in µg/mL

CC[C@H]1OC(=O)[C@H](C)C(=O)[C@H](C)[C@@H](O[C@@H]2O[C@H](C)C[C@H](N(C)C)[C@H]2O)[C@@](C)(OCC=Cc2cnc3ccccc3c2)C[C@@H](C)C(=O)[C@H](C)[C@H]2N(C)C(=O)O[C@]12C; 0.2

q: Recall the recorded MIC for CCC1OC(=O)C(C)C(=O)C(C)C(OC2OC(C)CC(N(C)C)C2O)C(C)(OCC=Cc2cccc([N+](=O)[O-])c2)CC(C)C(=O)C(C)C2NC(=O)OC12C (centres unmarked) with up to 32 different microorganisms and state it.
a: 0.05
